Biological target: Kallikrein-7 (Homo sapiens)
Experiment: activation of human kallikrein-7 proenzyme – biochemical, fluorescence intensity, primary screen (AID 652039)
Details: purified proKLK7, EDANS-DABCYL substrate fluorescence; at 7 µM; active compounds read high; 100% is mature enzyme control, 0% vehicle
Among all 370,000 compounds or so, about 3,300 (0.89%) were called active. The full list was thinned out, with actives kept by preference.
The entries below come with measured activation values attached.

Compound: COC(=O)[C@]12C[C@H](CC(=O)NCc3cccs3)C(=O)N(CCc3ccc(OC)c(OC)c3)C1=C[C@H](C(C)C)O[C@@H]2C1CC1
Target or system: Kallikrein-7 (Homo sapiens)
activation: 0.65% (inactive)
--
Compound: COc1ccccc1-n1c(C)nc2cc(C(=O)NCc3ccc4c(c3)OCO4)ccc21
Target or system: Kallikrein-7 (Homo sapiens)
activation: 0.53% (inactive)
--
Compound: COC(=O)c1cc(S(=O)(=O)N2CCN(C(=O)C3CCCO3)CC2)cn1C (centres undefined)
Target or system: Kallikrein-7 (Homo sapiens)
activation: -0.37% (inactive)
--
Compound: CN(C)c1cc(-c2ccc(F)cc2)oc(=O)c1Cl
Target or system: Kallikrein-7 (Homo sapiens)
activation: -0.37% (inactive)

Please report the recorded activation for COc1ccc(CCNC(=O)c2cc3sccc3n2C)cc1OC .
-0.31% (inactive)

Could you share which activation value was measured for CCOC(=O)C(=O)N(Cc1ccccc1)c1ccccc1C(=O)Nc1cc(OC)ccc1OC ?
0.42% (inactive)

What activation value was documented for this compound, CCOC(=O)c1cccc(NC(=O)CN(C)S(=O)(=O)c2ccc(-c3cocn3)s2)c1 ?
-0.02% (inactive)

Dear colleague, I am looking for the recorded activation of the following compound: COC(=O)[C@]12C[C@H](CC(=O)NCCCN3CCCC3=O)C(=O)N(CCc3ccc(OC)c(OC)c3)C1=C[C@H](COCc1ccccc1)O[C@@H]2C
-0.02% (inactive)

Entry under review: COc1ccc(CCNC(=O)Nc2ccc3c(c2)c(=O)n(C)n3C)cc1OC . Reported activation?
33.7% (active)

Hello, the source for this data is PubChem BioAssay AID652039, in case you need it.
